Readings of Threshold for the listed binders
targetEntity: T1, GAL4 activation domain fusion (ACT) to HAB1 (UniProt Q9CAJ0 23-511, limits assumed)
T1 construct: pACT-HAB1 fusion in yeast reporter strains; also called pACT-HAB1
T1 sequence (looked up): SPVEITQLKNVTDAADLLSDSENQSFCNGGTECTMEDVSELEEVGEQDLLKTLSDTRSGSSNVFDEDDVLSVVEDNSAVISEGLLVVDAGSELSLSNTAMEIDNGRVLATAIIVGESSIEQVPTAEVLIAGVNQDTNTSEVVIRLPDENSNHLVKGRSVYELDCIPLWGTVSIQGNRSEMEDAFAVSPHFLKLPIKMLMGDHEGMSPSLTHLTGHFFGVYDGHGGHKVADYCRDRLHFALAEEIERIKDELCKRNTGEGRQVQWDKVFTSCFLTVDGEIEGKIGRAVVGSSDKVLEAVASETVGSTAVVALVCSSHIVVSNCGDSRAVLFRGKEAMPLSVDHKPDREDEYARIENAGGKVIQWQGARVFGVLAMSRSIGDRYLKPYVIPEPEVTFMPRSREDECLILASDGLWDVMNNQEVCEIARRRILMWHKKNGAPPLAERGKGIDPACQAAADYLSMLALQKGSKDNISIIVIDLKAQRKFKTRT
methodDescription: yeast two-hybrid, X-gal; lowest fludioxonil concentration giving signal

{"columns": ["binder", "Threshold, µM"],
 "data": [
  ["PYR1^K59R,E94A,N167C (receptor, not shown: small tags and cut ends, pBD-PYR1 fusion in yeast) MPSELTPEERSELKNSIAEFHTYQLDPGSCSSLHAQRIHAPPELVWSIVRRFDKPQTYRHFIKSCSVEQNFEMRVGCTRDVIVISGLPANTSTARLDILDDERRVTGFSIIGGEHRLTNYKSVTTVHRFEKENRIWTVVLESYVVDMPEGNSEDDTRMFADTVVKLCLQKLATVAEAMARNSGDGSGSQVT", 10],
  ["PYR1^K59R,N167C (receptor, not shown: small tags and cut ends, pBD-PYR1 fusion in yeast) MPSELTPEERSELKNSIAEFHTYQLDPGSCSSLHAQRIHAPPELVWSIVRRFDKPQTYRHFIKSCSVEQNFEMRVGCTRDVIVISGLPANTSTERLDILDDERRVTGFSIIGGEHRLTNYKSVTTVHRFEKENRIWTVVLESYVVDMPEGNSEDDTRMFADTVVKLCLQKLATVAEAMARNSGDGSGSQVT", 100]
]}
